assay procedure: reducers of endogenous Her2 protein level, primary screen, SKBR3 breast tumor cells, AlphaScreen, ATP viability (AID 461);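 note: percent of carrier control wells set as 100% viability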
test parameters: 18-24 h, measured here: SKBR3 viability, ATP luminescence, at 10 µM
What viability was measured for each of the following?
Give bare numbers, in %.

>>> df
                                   compound   endpoint   val
0  O=C(c1ccco1)N1CCN(S(=O)(=O)c2ccc(C3CCCCC3)cc2)CC1  viability    96
1                      c1nnc(NC2=NCCCCC2)s1  viability  91.5
2                 COC(=O)CCN1CCC(C(N)=O)CC1  viability   100
3  CN(c1ccccc1)S(=O)(=O)c1ccc(C(=O)OCC(=O)NCc2ccco2)cc1  viability  95.5
4     CCOC(=O)c1[nH]c2ccccc2c1NC(=O)c1ccco1  viability   102

Give viability for each of the items listed below.
1. CCSc1nnc(NC(=O)c2ccc(C)o2)s1
2. Cc1cc(C(=O)OCCO)c(C#N)c(N)n1
3. CCN(CC)S(=O)(=O)c1ccc2oc(SCc3ccc(F)cc3)nc2c1
4. O=C(Nc1cccnc1)Nc1ccc2c(c1)OCO2
5. CC(=O)c1ccc(OC(=O)c2cccs2)cc1
6. CC1CC(=O)C2=C(C1)OC(N)=C(C#N)C2c1coc2ccccc2c1=O (stereo not drawn)
7. CCC(Oc1ccc2ccccc2c1)C(=O)O (stereo not drawn)
8. O=C1OCCC1Sc1ncnc2sc3c(c12)CCC3 (stereo not drawn)

# output
96.5
92
93.5
102
86
108
89.5
95.5

Provide viability values for the following items, in order.
1. CCn1c(Cc2ccc(OC)cc2)nnc1SCC(=O)Nc1cccc(C(=O)OC)c1
2. CCN(CCNC(=O)CS(=O)(=O)Cc1nc(-c2cccc(OC)c2)oc1C)c1ccccc1
3. CSCCC(NC(=O)c1occc1C)C(=O)O (stereo not drawn)
4. O=C(Oc1ccc(Cl)cc1N1C(=O)CCC1=O)c1ccco1
5. COc1ccc(CNC(=O)CCc2nc(-c3ccccc3F)no2)c(OC)c1
6. O=C(Nc1ccc2c(c1)OCO2)c1cc2ncc(Br)cn2n1
7. CCN1CCN(C(c2ccc(F)cc2)c2nnnn2Cc2cccs2)CC1 (stereo not drawn)

# output
[89.5, 97.5, 93.5, 96.5, 80, 101, 83]

* * *

Give measured viability for each item. Keep answers brief.
assay procedure: SK-BR-3 cell growth inhibitors, pilot screen, 24 h, human (AID 572);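 note: compound exposure lasted between 18 and 24 h rather than exactly 24 h; 100% = carrier-treated control wells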
test parameters: SK-BR-3 viability, CellTiter-Glo luminescence, at 10 µM, stronger effect = lower value
Give bare numbers, in %.

>>> print(df.to_string())
                                   compound   endpoint   val
0  CCCCC(CC)CNC(=O)C1CCCN(S(=O)(=O)c2cnc[nH]2)C1 (configuration not stated)  viability  91.5

For the 6 compounds below, give their viability values.
1. O=C(CCC(=O)c1cccs1)NCc1ccccc1
2. c1ccc2c(c1)Cn1c-2nc2ccccc21
3. CC1=C(C)[N+](=O)C2CCCCC2N1[O-] (configuration not stated)
4. Cn1c(=O)c2c(nc(NCCc3ccccc3)n2CC(=O)NCCc2ccccc2)n(C)c1=O
5. COc1ccccc1CN1C(=S)SC(C)(C)C1NO (configuration not stated)
6. COc1ccccc1-n1c(-c2cccnc2)n[nH]c1=S

# output
102
114
89
91
100
88

* * *

What inhibition was measured for each of the following?
assay procedure: growth suppression of yeast trafficking mutant, preliminary HTS, modulators of trafficking downstream of Golgi apparatus project, 1536-format plate, OD 615 nm (AID 637)
test parameters: yeast transport mutant growth, absorbance 615 nm, 18 h; stronger effect = higher value
Answers are plain numbers, in %.

>>> df
                                   compound    val
0  CN1C(=O)C2(NCCc3c2[nH]c2ccccc32)c2ccccc21 (configuration not stated)   6.07
1   O=C(CSc1ccc(Cl)cc1)OCc1nnc(-c2ccccc2)o1  -0.91
2     CN=C1CC(C)(C)CC(=O)/C1=C(/O)CCC(=O)NC  -3.97
3       Cc1nc2c(C(=O)O)cnn2c(C)c1Cc1ccccc1F  -8.33
4           O=C(c1cccnc1NCc1ccccc1)N1CCOCC1   23.2

Please look at the items below and tell me inhibition for each one, in order.
1. Cc1cc2c(c(=O)n1CCc1ccccc1)C(C(C)C)C(C#N)=C(N)O2 (configuration not stated)
2. Cc1nc(SCCC(=O)O)c2ccccc2n1

# output
1. 2.79
2. -0.5

// batch mode: one inhibition value per listed entry
1. O=C(CCC(=O)c1cccs1)NCc1ccccc1
2. CN(c1ccccc1)S(=O)(=O)c1ccc(C(=O)OCC(=O)N2CCOCC2)cc1
3. Nc1nnnn1/N=C/c1ccccc1OCc1ccccc1
4. O=C1COc2ccc(C(=O)NCc3ccco3)cc2N1
5. COc1cccc(-c2nnc(SCC(=O)N3CCCc4ccccc43)o2)c1
6. CC(C)CCNC(=O)C1CCN(C(=O)N(C)C)CC1

# output
1. -2.22
2. 3.17
3. 2.42
4. -7.26
5. -3.33
6. -1.33

Batch: inhibition for all items listed.
1. COc1ccc(OC)c(S(=O)(=O)Nc2ccc(C(N)=O)cc2)c1
2. CCSc1ccccc1C(=O)Nc1cccc(OC)c1
3. CCOC(=O)N1CCN(S(=O)(=O)c2ccc(Br)s2)CC1
4. COc1ccc(C2CC(=O)c3cnc(NC(=O)c4ccccc4OC)nc3C2)c(OC)c1 (configuration not stated)

# output
1. -2.3
2. -3.33
3. 2.95
4. 1.15

Report inhibition for every entry below.
1. CCn1nccc1C(=O)Nc1cc(Cl)ccc1Cl
2. O=S(=O)(c1cc(Cl)ccc1Br)N1CCOCC1
3. CCOc1ccc(C(=O)Nc2ccc(N3CCN(C)CC3)cc2)cc1Br
4. COC(=O)C(NC(C)=O)(Nc1nc2ccc(S(C)(=O)=O)cc2s1)C(F)(F)F (configuration not stated)
5. Cc1ccc(N2C(=O)c3ccccc3C2Nc2cccnc2)nc1 (configuration not stated)
6. COc1cccc(NC(=O)N2CCN(C(=O)C(Cc3ccc(OC)c(OC)c3)NC(C)=O)CC2)c1 (configuration not stated)
7. C=CCSc1nnc(-c2ccccc2NC(C)=O)c(=O)[nH]1

# output
1: -2; 2: -0.17; 3: 12.1; 4: -1.27; 5: -1.33; 6: -7.5; 7: -0.36

Please go through the list and note inhibition for each compound.
1. O=C(NCc1cccnc1)C1c2ccccc2C(=O)N1Cc1ccco1 (configuration not stated)
2. CCOC(=O)C1=C(C)N=c2s/c(=C\c3cccn3C)c(=O)n2C1c1cccc(OC)c1OC (configuration not stated)
3. COC(=O)CCn1nnc(-c2cccs2)n1
4. Cc1cc(NC(=O)c2cnn3cccnc23)no1
5. COc1cc(C(=O)Nc2ccc(-n3cnnn3)c(C)c2)cc(OC)c1OC
6. Cc1oc(-c2ccccc2Cl)nc1CSCC(=O)N1CCCC1
7. COC(=O)c1ccccc1NC(=O)C1CC(=O)N(c2ccccc2)C1 (configuration not stated)

# output
1. -3.65
2. -2.13
3. 4.1
4. -5.65
5. -7.3
6. 6.61
7. 6.77

For each listed entry, give its inhibition.
1. O=C(CSc1nnnn1-c1ccccc1)c1cc2ccccc2oc1=O
2. O=C(OCC#CCSc1nnc(-c2ccccc2)o1)c1cccs1

# output
[-6.83, -4.92]

Okay, here is my list. What is inhibition for each of these?
1. Cc1c(NS(=O)(=O)c2ccc3c(c2)c(=O)n(C)c(=O)n3C)c(=O)n(-c2ccccc2)n1C
2. CCCCOc1ccc(-c2nnn(CC(=O)NCc3ccco3)n2)cc1
3. CCOc1cc(C(=O)N2CCN(c3ccccc3)CC2)cc(OCC)c1OCC
4. COc1ccc2c(c1)n([O-])c1c([n+]2=O)CCC1
5. COc1ccc(-c2nnc(SCC(=O)c3cc(C)n(Cc4cccs4)c3C)o2)cc1
6. Cc1ccc(S(=O)(=O)N2CCC(C(=O)NCCN3CCCCCC3)CC2)cc1
7. CCOc1ccc(S(=O)(=O)n2nc(C)cc2C)c2ccccc12
8. Cc1cc(C)n(CCc2nc(-c3cccs3)cs2)n1

# output
[7.7, 4.1, -5.32, -4.55, 18.2, 2.13, 2, -0.48]

Below are some compounds; for each one, tell me its inhibition.
1. Cc1nnc(SCC(=O)N(C(C)C)C(C)C)nc1C
2. Cn1c(SCC(N)=O)nnc1C1CCN(C(=O)NCc2ccccc2)CC1
3. COC(=O)c1nn(-c2ccc(-c3ccccc3)cc2)cc1O

# output
[-1.31, -9.5, -8.06]

* * *

assay procedure: growth inhibitors of H69AR lung tumor, primary screen, human, duplicate replicates (AID 580);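 note: 100% = mean luminescence of untreated wells and 0% = no signal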
test parameters: H69AR lung tumor cells viability, ATP luminescence, 72 h; at 10 µM; stronger effect = lower value
Active and inactive are the calls of the source.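 The calls were made as follows: active = viability at or under a set limit in both replicates, limit being median viability minus 3 SD (cut at about 48% in these data, passing the limit was not always enough); inconclusive = at or under the limit in just one replicate; inactive = at or above the limit in both replicates.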
Assignment: determine reported viability for the given compounds.

In [3]: df
Out[3]:
                                   compound   endpoint               val
0        O=C1C(C=NCCCn2ccnc2)=C(O)c2ccccc21  viability  99.2% (inactive)
1  Cc1ccccc1C1CC(c2ccccc2)Nc2ncnn21 (configuration not stated)  viability  64.2% (inactive)
2            COc1ccccc1OCCn1c(=O)sc2ccccc21  viability  99.6% (inactive)
3                  O=C(CSc1ncn[nH]1)c1ccco1  viability  94.7% (inactive)
4  CC1CCCC(C(=O)OCc2ccccc2)N1 (configuration not stated)  viability  97.2% (inactive)

# return viability for each item in the list
1. CCCCn1nnnc1SCC(=O)Nc1cccc(C)n1
2. O=C(NCC(F)(F)F)N1CCOCC1
3. CN(C1CCCCC1)S(=O)(=O)c1ccc(NC(=O)c2ccco2)cc1
4. O=C(CCc1nc2ccccc2s1)OCC(=O)N1CCN(C(=O)c2ccco2)CC1
5. O=C(Cn1cnc2ccccc2c1=O)NCCC(=O)N1CCN(Cc2ccccc2)CC1
6. O=C(Nc1cccnc1)c1noc2c1CCCCC2

# output
1: 113% (inactive); 2: 100% (inactive); 3: 99.3% (inactive); 4: 90.5% (inactive); 5: 89.8% (inactive); 6: 87.3% (inactive)

# input Output measured viability for this item: C=CCc1c(C)nc(SC)nc1Nc1ccc(C(=O)O)cc1
# output 86.9% (inactive)
